Attribution: patent US6111067A

Test system: Staphylococcus epidermidis 222
TEST PROTOCOL: In vitro antibacterial activity, agar-dilution MIC
Format: cell-based
ASSAY ENDPOINT: MIC (µg/mL)
API: value field is a number in µg/mL; no unit string.

Ask | Consider the molecule shown here: CN[C@H](CC(C)C)C(=O)N[C@H]1C(=O)N[C@@H](CC(N)=O)C(=O)N[C@H]2C(=O)N[C@H]3C(=O)N[C@H](C(=O)N[C@H](C(=O)O)c4cc(O)cc(O)c4-c4cc3ccc4O)[C@H](O)c3ccc(cc3)Oc3cc2cc(c3O)Oc2ccc(cc2Cl)[C@H]1O What is its recorded MIC?
Reply | 8

Ask | Consider the molecule shown here: CN[C@H](CC(C)C)C(=O)N[C@H]1C(=O)N[C@@H](CC(N)=O)C(=O)N[C@H]2C(=O)N[C@H]3C(=O)N[C@H](C(=O)N[C@H](C(=O)O)c4cc(O)cc(O)c4-c4cc3ccc4O)[C@H](O[C@H]3C[C@](C)(N)[C@@H](O)[C@H](C)O3)c3ccc(c(Cl)c3)Oc3cc2cc(c3O)Oc2ccc(cc2Cl)[C@H]1O What is its recorded MIC?
Reply | 0.25

Ask | Consider the molecule shown here: CN[C@H](CC(C)C)C(=O)N[C@H]1C(=O)N[C@@H](CC(N)=O)C(=O)N[C@H]2C(=O)N[C@H]3C(=O)N[C@H](C(=O)N[C@H](C(=O)O)c4cc(O)cc(O)c4-c4cc3ccc4O)[C@H](O[C@H]3C[C@](C)(N)[C@@H](O)[C@H](C)O3)c3ccc(c(Cl)c3)Oc3cc2cc(c3O[C@@H]2O[C@H](CO)[C@@H](O)[C@H](O)[C@H]2O)Oc2ccc(cc2Cl)[C@H]1O What is its recorded MIC?
Reply | 0.5

Ask | Consider the molecule shown here: CN[C@H](CC(C)C)C(=O)N[C@H]1C(=O)N[C@@H](CC(N)=O)C(=O)N[C@H]2C(=O)N[C@H]3C(=O)N[C@H](C(=O)N[C@H](C(=O)O)c4cc(O)cc(O)c4-c4cc3ccc4O)[C@H](O[C@H]3C[C@](C)(N)[C@@H](O)[C@H](C)O3)c3ccc(cc3)Oc3cc2cc(c3O)Oc2ccc(cc2Cl)[C@H]1O What is its recorded MIC?
Reply | 2

Ask | Consider the molecule shown here: CNC(CC(C)C)C(=O)NC1C(=O)NC(CC(N)=O)C(=O)NC2C(=O)NC3C(=O)NC(C(=O)NC(C(=O)O)c4cc(O)cc(O)c4-c4cc3ccc4O)C(OC3CC(C)(N)C(O)C(C)O3)c3ccc(cc3)Oc3cc2cc(c3OC2OC(CO)C(O)C(O)C2O)Oc2ccc(cc2Cl)C1O (centres unmarked) What is its recorded MIC?
Reply | 1

###

System: Staphylococcus aureus X400
TEST PROTOCOL: In vitro antibacterial activity, agar-dilution MIC
Type: cell-based
TEST SETTINGS: Staphylococcus aureus X400, methicillin-resistant strain
ASSAY ENDPOINT: MIC
Just so you know, I need the unit written after the number.

Ask | Consider the compound shown here: CN[C@H](CC(C)C)C(=O)N[C@H]1C(=O)N[C@@H](CC(N)=O)C(=O)N[C@H]2C(=O)N[C@H]3C(=O)N[C@H](C(=O)N[C@H](C(=O)O)c4cc(O)cc(O)c4-c4cc3ccc4O)[C@H](O[C@H]3C[C@](C)(N)[C@@H](O)[C@H](C)O3)c3ccc(c(Cl)c3)Oc3cc2cc(c3O)Oc2ccc(cc2Cl)[C@H]1O What is its recorded MIC?
Reply | 0.5 µg/mL

Ask | Consider the compound shown here: CN[C@H](CC(C)C)C(=O)N[C@H]1C(=O)N[C@@H](CC(N)=O)C(=O)N[C@H]2C(=O)N[C@H]3C(=O)N[C@H](C(=O)N[C@H](C(=O)O)c4cc(O)cc(O)c4-c4cc3ccc4O)[C@H](O[C@H]3C[C@](C)(N)[C@@H](O)[C@H](C)O3)c3ccc(cc3)Oc3cc2cc(c3O)Oc2ccc(cc2Cl)[C@H]1O What is its recorded MIC?
Reply | 1 µg/mL

Ask | Consider the compound shown here: CN[C@H](CC(C)C)C(=O)N[C@H]1C(=O)N[C@@H](CC(N)=O)C(=O)N[C@H]2C(=O)N[C@H]3C(=O)N[C@H](C(=O)N[C@H](C(=O)O)c4cc(O)cc(O)c4-c4cc3ccc4O)[C@H](O[C@H]3C[C@](C)(N)[C@@H](O)[C@H](C)O3)c3ccc(c(Cl)c3)Oc3cc2cc(c3O[C@@H]2O[C@H](CO)[C@@H](O)[C@H](O)[C@H]2O)Oc2ccc(cc2Cl)[C@H]1O What is its recorded MIC?
Reply | 0.5 µg/mL

###

Test system: Staphylococcus epidermidis 270
TEST PROTOCOL: In vitro antibacterial activity, agar-dilution MIC
Assay type: cell-based
ASSAY ENDPOINT: MIC (µg/mL)
API: value field is a number in µg/mL; no unit string.

Ask | Quick check: MIC on Staphylococcus epidermidis 270, item CNC(CC(C)C)C(=O)NC1C(=O)NC(CC(N)=O)C(=O)NC2C(=O)NC3C(=O)NC(C(=O)NC(C(=O)O)c4cc(O)cc(O)c4-c4cc3ccc4O)C(OC3CC(C)(N)C(O)C(C)O3)c3ccc(cc3)Oc3cc2cc(c3OC2OC(CO)C(O)C(O)C2O)Oc2ccc(cc2Cl)C1O (centres unmarked) [Compound 2a] ?
Reply | 1

Ask | Quick check: MIC on Staphylococcus epidermidis 270, item CN[C@H](CC(C)C)C(=O)N[C@H]1C(=O)N[C@@H](CC(N)=O)C(=O)N[C@H]2C(=O)N[C@H]3C(=O)N[C@H](C(=O)N[C@H](C(=O)O)c4cc(O)cc(O)c4-c4cc3ccc4O)[C@H](O)c3ccc(cc3)Oc3cc2cc(c3O)Oc2ccc(cc2Cl)[C@H]1O [Compound 2c] ?
Reply | 4

Ask | Quick check: MIC on Staphylococcus epidermidis 270, item CN[C@H](CC(C)C)C(=O)N[C@H]1C(=O)N[C@@H](CC(N)=O)C(=O)N[C@H]2C(=O)N[C@H]3C(=O)N[C@H](C(=O)N[C@H](C(=O)O)c4cc(O)cc(O)c4-c4cc3ccc4O)[C@H](O[C@H]3C[C@](C)(N)[C@@H](O)[C@H](C)O3)c3ccc(c(Cl)c3)Oc3cc2cc(c3O)Oc2ccc(cc2Cl)[C@H]1O [Compound 3b] ?
Reply | 0.5

Ask | Quick check: MIC on Staphylococcus epidermidis 270, item CN[C@H](CC(C)C)C(=O)N[C@H]1C(=O)N[C@@H](CC(N)=O)C(=O)N[C@H]2C(=O)N[C@H]3C(=O)N[C@H](C(=O)N[C@H](C(=O)O)c4cc(O)cc(O)c4-c4cc3ccc4O)[C@H](O[C@H]3C[C@](C)(N)[C@@H](O)[C@H](C)O3)c3ccc(c(Cl)c3)Oc3cc2cc(c3O[C@@H]2O[C@H](CO)[C@@H](O)[C@H](O)[C@H]2O)Oc2ccc(cc2Cl)[C@H]1O [Compound 3a] ?
Reply | 1

Ask | Quick check: MIC on Staphylococcus epidermidis 270, item CN[C@H](CC(C)C)C(=O)N[C@H]1C(=O)N[C@@H](CC(N)=O)C(=O)N[C@H]2C(=O)N[C@H]3C(=O)N[C@H](C(=O)N[C@H](C(=O)O)c4cc(O)cc(O)c4-c4cc3ccc4O)[C@H](O[C@H]3C[C@](C)(N)[C@@H](O)[C@H](C)O3)c3ccc(cc3)Oc3cc2cc(c3O)Oc2ccc(cc2Cl)[C@H]1O [Compound 2b] ?
Reply | 2

###

Tested on: Streptococcus pyogenes C203
TEST PROTOCOL: In vitro antibacterial activity, agar-dilution MIC
Assay type: cell-based
ASSAY ENDPOINT: MIC (µg/mL)
API: value field is a number in µg/mL; no unit string.

Ask | Consider the compound shown here: CN[C@H](CC(C)C)C(=O)N[C@H]1C(=O)N[C@@H](CC(N)=O)C(=O)N[C@H]2C(=O)N[C@H]3C(=O)N[C@H](C(=O)N[C@H](C(=O)O)c4cc(O)cc(O)c4-c4cc3ccc4O)[C@H](O[C@H]3C[C@](C)(N)[C@@H](O)[C@H](C)O3)c3ccc(c(Cl)c3)Oc3cc2cc(c3O)Oc2ccc(cc2Cl)[C@H]1O [Compound 3b] What is its recorded MIC?
Reply | 0.25

Ask | Consider the compound shown here: CNC(CC(C)C)C(=O)NC1C(=O)NC(CC(N)=O)C(=O)NC2C(=O)NC3C(=O)NC(C(=O)NC(C(=O)O)c4cc(O)cc(O)c4-c4cc3ccc4O)C(OC3CC(C)(N)C(O)C(C)O3)c3ccc(cc3)Oc3cc2cc(c3OC2OC(CO)C(O)C(O)C2O)Oc2ccc(cc2Cl)C1O (centres unmarked) [Compound 2a] What is its recorded MIC?
Reply | 0.5

Ask | Consider the compound shown here: CN[C@H](CC(C)C)C(=O)N[C@H]1C(=O)N[C@@H](CC(N)=O)C(=O)N[C@H]2C(=O)N[C@H]3C(=O)N[C@H](C(=O)N[C@H](C(=O)O)c4cc(O)cc(O)c4-c4cc3ccc4O)[C@H](O)c3ccc(cc3)Oc3cc2cc(c3O)Oc2ccc(cc2Cl)[C@H]1O [Compound 2c] What is its recorded MIC?
Reply | 4

Ask | Consider the compound shown here: CN[C@H](CC(C)C)C(=O)N[C@H]1C(=O)N[C@@H](CC(N)=O)C(=O)N[C@H]2C(=O)N[C@H]3C(=O)N[C@H](C(=O)N[C@H](C(=O)O)c4cc(O)cc(O)c4-c4cc3ccc4O)[C@H](O[C@H]3C[C@](C)(N)[C@@H](O)[C@H](C)O3)c3ccc(cc3)Oc3cc2cc(c3O)Oc2ccc(cc2Cl)[C@H]1O [Compound 2b] What is its recorded MIC?
Reply | 1

Ask | Consider the compound shown here: CN[C@H](CC(C)C)C(=O)N[C@H]1C(=O)N[C@@H](CC(N)=O)C(=O)N[C@H]2C(=O)N[C@H]3C(=O)N[C@H](C(=O)N[C@H](C(=O)O)c4cc(O)cc(O)c4-c4cc3ccc4O)[C@H](O[C@H]3C[C@](C)(N)[C@@H](O)[C@H](C)O3)c3ccc(c(Cl)c3)Oc3cc2cc(c3O[C@@H]2O[C@H](CO)[C@@H](O)[C@H](O)[C@H]2O)Oc2ccc(cc2Cl)[C@H]1O [Compound 3a] What is its recorded MIC?
Reply | 0.25
